Test system: Pfa1 cells
Test: Inhibition of non-apoptotic cell death after tamoxifen-induced GPx4 knockout in a recombinant cell line (Example B.4)
Assay type: cell-based
Settings: Mus musculus, read-out: Pfa1/TAM IC50
Documented IC50 across a set of compounds

compound: CC(CCc1ccccc1)NC1=Nc2ccccc2NC12CCNCC2 (stereo not shown) [N-222]
IC50: < 200 nM

compound: Cc1cccc(CNC2=Nc3cc(Cl)c(Cl)cc3NC23CCCCCC3)c1 [C-267]
IC50: < 200 nM

compound: Cc1cccc(CNC2=Nc3cc(Cl)c(Cl)cc3NC23CCOCC3)c1 [O/S-342]
IC50: < 50 nM

compound: CC(C)(C)c1ccc(CNC2=Nc3ccccc3NC23CCCCC3)cc1 [C-269]
IC50: < 200 nM

compound: CC1CCC2(CC1)Nc1ccccc1N=C2NCc1ccccc1Cl (stereo not shown) [C-91]
IC50: < 200 nM

compound: c1ccc(CNC2=Nc3ccccc3NC23CCSCC3)cc1 [O/S-338]
IC50: < 1000 nM

compound: Clc1ccc(CNC2=Nc3ccccc3NC23CCCCC3)cc1Cl [C-228]
IC50: < 50 nM

compound: c1ccc(C(CNC2=Nc3ccccc3NC23CCNCC3)c2ccccc2)cc1 [N-220]
IC50: < 50 nM

compound: O=S1(=O)CCC2(CC1)Nc1cc(Cl)c(Cl)cc1N=C2NCc1ccccc1 [O/S-360]
IC50: < 2000 nM

compound: Clc1cc2c(cc1Cl)NC1(CCSCC1)C(NCc1ccccc1)=N2 [O/S-349]
IC50: < 200 nM

* * *

Documented IC50 across a set of molecules
Tested on: human neuroblastoma cell line SH-SY5Y
Experiment: Inhibition of BSO-induced non-apoptotic cell death (Example B.1)
Assay type: cell-based
Conditions: SH-SY5Y cells, 50 μM BSO, 72 hours, read-out: SH-SY5Y/BSO IC50
measured.quantity: IC50

molecule: Clc1ccc(CNC2=Nc3ccccc3NC23CCNCC3)cc1 [N-3]
assay.value: < 50 nM
--
molecule: Fc1ccc(CNC2=Nc3ccccc3NC23CCOCC3)cc1 [O/S-6]
assay.value: < 500 nM
--
molecule: c1ccc(CNC2=Nc3ccccc3NC23CCCCC3)cc1 [C-215]
assay.value: < 200 nM
--
molecule: Fc1cccc(F)c1CNC1=Nc2ccccc2NC12CCNCC2 [N-231]
assay.value: < 100 nM
--
molecule: Fc1cc2c(cc1F)NC1(CCNCC1)C(NCc1cccc(Cl)c1)=N2 [N-117]
assay.value: < 10 nM
--
molecule: Cc1cc2c(cc1C)NC1(CCNCC1)C(NCc1cccc(C(F)(F)F)c1)=N2 [N-251]
assay.value: < 10 nM

* * *

Documented IC50 across a set of compounds
Test system: human neuroblastoma cell line SH-SY5Y
Experiment: Inhibition of BSO-induced non-apoptotic cell death (Example B.1)
Type: cell-based
Conditions: SH-SY5Y cells, 50 μM BSO, 72 hours, read-out: SH-SY5Y/BSO IC50

compound: CC1CN(C)CCC12Nc1ccccc1N=C2NCc1ccccc1 (stereo not shown) [N-256]
IC50: < 50 nM
//
compound: FC1(F)Oc2cc3c(cc2O1)NC1(CCOCC1)C(NCc1ccccc1)=N3 [O/S-366]
IC50: < 50 nM
//
compound: c1ccc(CNC2=Nc3ccccc3NC23CCOCC3)cc1 [O/S-337]
IC50: < 500 nM
//
compound: c1ccc(CNC2=Nc3cc4c(cc3NC23CCCCC3)OCCO4)cc1 [C-223]
IC50: < 500 nM
//
compound: Clc1ccc(CNC2=Nc3ccccc3NC23CCCCC3)cc1Cl [C-228]
IC50: < 50 nM
//
compound: CC1(C)CCC2(CC1)Nc1ccccc1N=C2NCc1ccccc1 [C-253]
IC50: < 100 nM
//
compound: Cc1cc2c(cc1C)NC1(CCSCC1)C(NCc1ccccc1)=N2 [O/S-369]
IC50: < 50 nM
//
compound: Clc1cccc(CNC2=Nc3cc4c(cc3NC23CCCCC3)OCCO4)c1 [C-227]
IC50: < 500 nM
//
compound: Fc1cc2c(cc1F)NC1(CCCCC1)C(NCc1cccc(Cl)c1)=N2 [C-137]
IC50: < 200 nM
//
compound: Cc1cccc2c1NC1(CCCCC1)C(NCc1ccccc1)=N2 [C-263]
IC50: < 50 nM

* * *

Documented pIC50 across a set of compounds
Tested on: Pfa1 cells
Assay: Inhibition of non-apoptotic cell death after tamoxifen-induced GPx4 knockout in a recombinant cell line (Example B.4)
Type: cell-based
Details: Mus musculus, read-out: Pfa1/TAM IC50
pIC50: −log10 of the molar value.

compound: Fc1cc2c(cc1F)NC1(CCNCC1)C(NCc1cccc(Cl)c1)=N2 [N-117]
target.system: Pfa1 cells
pIC50: > 7.30

compound: Clc1cc2c(cc1Cl)NC1(CCCCCCC1)C(NCc1ccccc1)=N2 [C-237]
target.system: Pfa1 cells
pIC50: > 6.30

compound: FC(F)(F)c1cccc(CNC2=Nc3ccccc3NC23CCCCCC3)c1 [C-261]
target.system: Pfa1 cells
pIC50: > 6.30

compound: c1ccc(CCNC2=Nc3ccccc3NC23CCNCC3)cc1 [N-226]
target.system: Pfa1 cells
pIC50: > 7.00

compound: Fc1cc2c(cc1F)NC1(CCNCC1)C(NCc1ccccc1Cl)=N2 [N-259]
target.system: Pfa1 cells
pIC50: > 7.30

compound: FC(F)(F)c1cccc2c1N=C(NCc1ccccc1)C1(CCCCC1)N2 [C-254]
target.system: Pfa1 cells
pIC50: > 6.30

compound: Clc1cccc(CNC2=Nc3ccccc3NC23CCCCCC3)c1 [C-216]
target.system: Pfa1 cells
pIC50: > 7.00

compound: CC1CC2(CCN1)Nc1ccccc1N=C2NCc1cccc(Cl)c1 (stereo not drawn) [N-239]
target.system: Pfa1 cells
pIC50: > 6.00

compound: CN1CCC2(CC1)Nc1cc(Cl)c(Cl)cc1N=C2NCc1ccccc1 [N-230]
target.system: Pfa1 cells
pIC50: > 8.00

compound: c1ccc(CNC2=Nc3ccccc3NC23CCOCC3)cc1 [O/S-337]
target.system: Pfa1 cells
pIC50: > 5.30

compound: Fc1ccc(CNC2=Nc3ccccc3NC23CCOCC3)cc1 [O/S-6]
target.system: Pfa1 cells
pIC50: > 6.00

compound: Cc1cc2c(cc1C)NC1(CCCCCCC1)C(NCc1ccccc1)=N2 [C-241]
target.system: Pfa1 cells
pIC50: > 6.30

compound: FC(F)(F)c1cccc(CNC2=Nc3cc(Cl)c(Cl)cc3NC23CCNCC3)c1 [N-260]
target.system: Pfa1 cells
pIC50: > 7.70

compound: Fc1ccc(CNC2=Nc3ccccc3NC23CCCCCC3)c(F)c1 [C-242]
target.system: Pfa1 cells
pIC50: > 6.00

compound: CCCCCCCC(=O)N1CCC2(CC1)Nc1ccccc1N=C2NCc1ccccc1 [N-216]
target.system: Pfa1 cells
pIC50: > 6.30

compound: FC(F)(F)c1cccc(CNC2=Nc3cc(Cl)c(Cl)cc3NC23CCCCC3)c1 [C-264]
target.system: Pfa1 cells
pIC50: > 6.30

compound: Clc1ccc(CNC2=Nc3ccccc3NC23CCNCC3)cc1 [N-3]
target.system: Pfa1 cells
pIC50: > 8.00

compound: FC(F)(F)c1cccc(CNC2=Nc3ccccc3NC23CCSCC3)c1 [O/S-189]
target.system: Pfa1 cells
pIC50: > 5.30

compound: Fc1cccc(CNC2=Nc3ccccc3NC23CCOCC3)c1 [O/S-5]
target.system: Pfa1 cells
pIC50: > 5.70

compound: Clc1ccc(CNC2=Nc3ccccc3NC23CCOCC3)cc1 [O/S-3]
target.system: Pfa1 cells
pIC50: > 6.30

compound: CC(=O)NC1CCC2(CC1)Nc1ccccc1N=C2NCc1cccc(Cl)c1 (stereo not drawn) [C-111]
target.system: Pfa1 cells
pIC50: > 6.00

* * *

System: Pfa1 cells
Assay: Inhibition of non-apoptotic cell death after tamoxifen-induced GPx4 knockout in a recombinant cell line (Example B.4)
Assay type: cell-based
Details: Mus musculus, read-out: Pfa1/TAM IC50
Description: Inhibition of Non-Apoptotic Cell-Death by Compounds Disclosed Herein Using a Recombinant Cell Line To combat high intracellular ROS levels, mammalian cells have evolved an intricate network of ROS scavenging in cells, in which the thioredoxin and glutathione (GSH) dependent systems prevail. […] Knockout of GPx4 in neurons causes massive neurodegeneration in cortical, cerebellar and hippocampal neurons underscoring the high relevance of ROS-induced cell death signaling in the brain. […]

compound: c1ccc(CNC2=Nc3ccccc3NC23CCCC3)cc1 [C-219]
IC50: < 2000 nM
--
compound: Cc1cc2c(cc1C)NC1(CCNCC1)C(NCc1ccc(Cl)c(Cl)c1)=N2 [N-232]
IC50: < 10 nM
--
compound: Cc1cccc(CNC2=Nc3cc(Cl)c(Cl)cc3NC23CCCCC3)c1 [C-268]
IC50: < 100 nM
--
compound: Fc1cccc(F)c1CNC1=Nc2ccccc2NC12CCOCC2 [O/S-341]
IC50: < 2000 nM
--
compound: Clc1ccccc1CNC1=Nc2ccccc2NC12CCNCC2 [N-1]
IC50: < 50 nM
--
compound: c1ccc(CCCNC2=Nc3ccccc3NC23CCNCC3)cc1 [N-228]
IC50: < 100 nM
--
compound: Fc1cccc(F)c1CNC1=Nc2cc(Cl)c(Cl)cc2NC12CCCCC2 [C-240]
IC50: < 500 nM
--
compound: Cc1cccc(CNC2=Nc3cc(Cl)c(Cl)cc3NC23CCNCC3)c1 [N-224]
IC50: < 10 nM
--
compound: CC1CCC2(CC1)Nc1ccccc1N=C2NCc1ccccc1 (stereo not drawn) [C-252]
IC50: < 1000 nM
--
compound: CC(NC1=Nc2ccccc2NC12CCOCC2)c1ccccc1 (stereo not drawn) [O/S-348]
IC50: < 5000 nM
--
compound: Clc1ccccc1CNC1=Nc2ccccc2NC12CCCCC2 [C-1]
IC50: < 500 nM
--
compound: Cc1cccc2c1NC1(CCCCC1)C(NCc1ccccc1)=N2 [C-263]
IC50: < 500 nM
